target: HSV1 uracil-DNA glycosylase (HSV1 UDG) (Human herpesvirus 1); construct: made in house; assay: Inhibition of HSV1 uracil-DNA glycosylase, [3H]uracil release from [3H]dUMP-containing DNA; format: biochemical; conditions: Table 3; read-out: IC50 HSV1-UDG
Sequence (P10186 whole entry): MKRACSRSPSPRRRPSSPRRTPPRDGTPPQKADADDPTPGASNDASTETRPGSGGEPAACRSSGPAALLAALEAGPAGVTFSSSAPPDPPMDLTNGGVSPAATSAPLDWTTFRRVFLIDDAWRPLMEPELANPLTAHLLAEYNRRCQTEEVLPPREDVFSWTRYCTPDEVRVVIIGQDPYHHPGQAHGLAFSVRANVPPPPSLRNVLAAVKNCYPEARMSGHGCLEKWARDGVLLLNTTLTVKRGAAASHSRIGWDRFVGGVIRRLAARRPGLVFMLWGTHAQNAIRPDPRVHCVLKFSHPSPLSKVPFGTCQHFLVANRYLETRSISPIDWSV
pIC50 reference
Give only the number. pIC50 is defined as minus log10 of concentration in molar units.

Check out these entries, answers already filled in.
[
  {
    "Molecule": "CCCCCCCCc1ccc(Nc2cc(=O)[nH]c(=O)n2CCOC)cc1 [Compound 24]",
    "System Tested": "HSV1 uracil-DNA glycosylase (HSV1 UDG) (Human herpesvirus 1)",
    "Property Measured": "pIC50",
    "Data Value": 4.82
  },
  {
    "Molecule": "CCCCCCc1ccc(Nc2cc(=O)[nH]c(=O)n2CCO)cc1 [Compound 21]",
    "System Tested": "HSV1 uracil-DNA glycosylase (HSV1 UDG) (Human herpesvirus 1)",
    "Property Measured": "pIC50",
    "Data Value": 4.70
  }
]

Attention now turns to another entry.
Provide the reported pIC50 (system: HSV1 uracil-DNA glycosylase (HSV1 UDG) (Human herpesvirus 1)) for CCCCCCCCc1ccc(Nc2cc(=O)[nH]c(=O)n2CCO)cc1 [Compound 25] 5.00
